What collision cross section was measured for each of the following?
- TEST_SUMMARY: collision cross section of modified peptide (TIMS, N2, iRT-aligned); higher = larger / more extended gas-phase ion
- MEASUREMENT_CONTEXT: charge state: 3; modification: Methyl (K)
± gives the standard deviation.
Could you write the number and then its unit?

Q: Given VTLEVGKVIQQGR [_VTLEVGK(Methyl (K))VIQQGR_] , state its recorded collision cross section.
A: 464.87 ± 3.7 Å²

Q: How about VLDSGAPIKIPVGPETLGR [_VLDSGAPIK(Methyl (K))IPVGPETLGR_] ?
A: 510.82 ± 2.8 Å²

Q: How about SGKFTQQDIDEAK [_SGK(Methyl (K))FTQQDIDEAK_] ?
A: 468.01 ± 3.6 Å²

Q: How about IVEKYGYTHLSAGELLR [_IVEK(Methyl (K))YGYTHLSAGELLR_] ?
A: 548.39 ± 0.79 Å²

Q: How about PSVGSQSNQAGQGKR [_PSVGSQSNQAGQGK(Methyl (K))R_] ?
A: 471.73 ± 2.8 Å²

* * *

- TEST_SUMMARY: collision cross section of modified peptide (TIMS, N2, iRT-aligned); higher = larger / more extended gas-phase ion
- MEASUREMENT_CONTEXT: charge state: 3; modification: Methyl (R)
What collision cross section was measured for each of the following?
// return numeric value only (unit: Å², not printed)

Q: Given SGGRGVSVSSAR [_SGGR(Methyl (R))GVSVSSAR_] , state its recorded collision cross section.
A: 443.44

Q: How about YGRGQLNYPLPDFSK [_YGR(Methyl (R))GQLNYPLPDFSK_] ?
A: 496.04

Q: How about AAHGRGALAEAAR [_AAHGR(Methyl (R))GALAEAAR_] ?
A: 469.45

Q: How about TQAEGQGQGRGLGLVSAVR [_TQAEGQGQGR(Methyl (R))GLGLVSAVR_] ?
A: 510.91

Q: How about FGDSRGGGGNFGPGPGSNFR [_FGDSR(Methyl (R))GGGGNFGPGPGSNFR_] ?
A: 500.57

Q: How about GRGAANDSTQFTVAGR [_GR(Methyl (R))GAANDSTQFTVAGR_] ?
A: 468.2

Q: How about GPPRGGPGGELPR [_GPPR(Methyl (R))GGPGGELPR_] ?
A: 472.6

Q: How about GARLPGPVSSAR [_GAR(Methyl (R))LPGPVSSAR_] ?
A: 474.74

Q: How about VRFHNPR [_VR(Methyl (R))FHNPR_] ?
A: 406.89

Q: How about SGGGYGGDRGGGYGGDR [_SGGGYGGDR(Methyl (R))GGGYGGDR_] ?
A: 461.83

Q: How about FGSRGGPGGGFR [_FGSR(Methyl (R))GGPGGGFR_] ?
A: 435.83

* * *

- TEST_SUMMARY: collision cross section of modified peptide (TIMS, N2, iRT-aligned); higher = larger / more extended gas-phase ion
- MEASUREMENT_CONTEXT: charge state: 3; modification: HexNAc (ST)
What collision cross section was measured for each of the following?
// return numeric value only (unit: Å², not printed)

Q: Given RFSPPSSSLQPGK [_RFS(HexNAc (ST))PPSSSLQPGK_] , state its recorded collision cross section.
A: 448.47

Q: How about VPQAQPTKPALK [_VPQAQPT(HexNAc (ST))KPALK_] ?
A: 481.8

Q: How about TELLPGDRDNLAIQTR [_TELLPGDRDNLAIQT(HexNAc (ST))R_] ?
A: 528.81

Q: How about TAGSSGVTAGRPRPTAR [_TAGSSGVTAGRPRPT(HexNAc (ST))AR_] ?
A: 527.29

Q: How about GSHGQTPSPGALPLGR [_GS(HexNAc (ST))HGQTPSPGALPLGR_] ?
A: 494.18

Q: How about EPFSGDHSADGFEVTSR [_EPFS(HexNAc (ST))GDHSADGFEVTSR_] ?
A: 513.98

Q: How about LGHYATQLQK [_LGHYAT(HexNAc (ST))QLQK_] ?
A: 446.62

Q: How about YIDNQVVSTKGER [_YIDNQVVST(HexNAc (ST))KGER_] ?
A: 510.94

Q: How about RLDINTNTYTSQDLK [_RLDINTNTYTS(HexNAc (ST))QDLK_] ?
A: 511.61

Q: How about THLGEALAPLSK [_THLGEALAPLS(HexNAc (ST))K_] ?
A: 475.05
